# Test conditions: 291.15 K; 101.33 kPa; Liquid; Vibrating tube method
Outcome measure: mass density (kg/m3)

INSERT INTO measurements (compound, result_unit, observed_value) VALUES
  ('CCCC(=O)[O-].C[NH2+]CCO [N-methyl-2-hydroxyethylammonium butanoate]', 'kg/m3', 1043.99),
  ('CCCCC(=O)[O-].C[NH2+]CCO [2-hydroxy-N-methylethanaminium pentanoate]', 'kg/m3', 1020.96),
  ('CCC(=O)[O-].C[NH2+]CCO [2-hydroxy-N-methylethanaminium propionate]', 'kg/m3', 1075.82),
  ('CC(=O)[O-].C[NH2+]CCO [N-methyl-2-hydroxyethylammonium acetate]', 'kg/m3', 1104.97),
  ('C[NH2+]CCO.O=C[O-] [2-hydroxy-N-methylethanaminium formate]', 'kg/m3', 1132.16),
  ('CC(C)C(=O)[O-].C[NH2+]CCO [2-hydroxy-N-methylethanaminium isobutyrate]', 'kg/m3', 1047.79);
